Hey, just so you know, these numbers are from patent US5229410A.

System: Brain 5-hydroxyindoles
Assay Comment: brain 5-hydroxyindoles in vivo after subcutaneous injection
Design: species or system male albino rats
Stated Conditions: 0.3 mg/Kg s.c., 1 hour; * = P<0.05 vs control
Experimental: Certain compounds were evaluated to determine their ability to affect the 5-hydroxyindoles serotonin, 5-hydroxyindole acetic acid (5HIAA) and serum corticosterone, in vivo, using the following procedures. Compounds in aqueous solution were injected subcutaneously into male albino rats. Rats were decapitated one hour later. Trunk blood was collected and allowed to clot; after centrifugation, serum was stored frozen prior to analysis. […]
Assay Readout: Brain 5-HIAA (n moles/g)

Compound | Assay Readout | Measurement
CCCN(CCC)[C@@H]1Cc2c(C(C)=O)ccc3c2[C@H](CN3)C1 | Brain 5-HIAA | 1.77
CCCN(CCC)[C@H]1Cc2c(C(C)=O)ccc3c2[C@@H](CN3)C1 | Brain 5-HIAA | 1.41
CCCN(CCC)C1Cc2c(C(=O)C(C)C)ccc3c2C(CN3)C1 (single isomer, unassigned; (-)) | Brain 5-HIAA | 1.74
CCCN(CCC)[C@H]1Cc2c(C(=O)C(C)C)ccc3c2[C@@H](CN3)C1 | Brain 5-HIAA | 1.30
